Listing: EC50 at 72 h of selected compounds
- Test name: Cellular toxicity, MTT assay, MRC-5
- Type: cell-based
- Condition set: human, MRC-5 cells, maximal concentration 200 µM, read-out: EC50 MRC-5 Cell Line (cytotoxicity)
The reply should read as a number followed by its unit.

CCCCCCCCCCCCS[C@@H]1[C@H](O)[C@@H](O)[C@H](O)[C@H]2COC(=O)N21	43.1 µM
CCCCCCCCCCCCCCCCOP(=O)([O-])OCC[N+](C)(C)C [Miltefosine, reference compound]	57.6 µM
CCCCCCCCCCCCN[C@@H]1[C@H](O)[C@@H](O)[C@H](O)[C@H]2COC(=O)N21	49.6 µM

Noted for `CCCCCCCCN[C@@H]1[C@H](O)[C@@H](O)[C@H](O)[C@H]2COC(=O)N21` : its EC50 at 72 h reads 155 µM

Noted for `CCCCCCCCS[C@@H]1[C@H](O)[C@@H](O)[C@H](O)[C@H]2COC(=O)N21` : its EC50 at 72 h reads 58.1 µM
